B1: VH:VL chains; a variant is named by its letters at X, in order (parent)
chain 1: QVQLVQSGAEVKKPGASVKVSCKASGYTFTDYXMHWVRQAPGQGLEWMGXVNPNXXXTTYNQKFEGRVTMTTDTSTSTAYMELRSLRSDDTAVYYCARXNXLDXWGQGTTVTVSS
chain 2: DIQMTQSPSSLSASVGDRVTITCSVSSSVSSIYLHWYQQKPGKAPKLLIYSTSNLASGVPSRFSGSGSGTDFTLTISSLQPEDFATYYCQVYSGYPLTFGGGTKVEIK

- Variants of: B1
- procedure-details: yeast display scFab, FACS + sequencing
quantity-measured: non-specific binding call

[[record]]
mutation_string = "VTEEGDWV"
result_value = "no binding"

[[record]]
mutation_string = "VKRGDDVV"
result_value = "no binding"

[[record]]
mutation_string = "YKRGDAVF"
result_value = "no binding"

[[record]]
mutation_string = "YRAGDSSA"
result_value = "no binding"

[[record]]
mutation_string = "YRGKGALS"
result_value = "binds"

[[record]]
mutation_string = "DEGGTAVA"
result_value = "no binding"

[[record]]
mutation_string = "FTGTSDLY"
result_value = "no binding"

[[record]]
mutation_string = "SEEGTDWY"
result_value = "no binding"

[[record]]
mutation_string = "VRRGSSAF"
result_value = "binds"

[[record]]
mutation_string = "VAGTGDWF"
result_value = "no binding"

[[record]]
mutation_string = "VKAGDDVA"
result_value = "no binding"

[[record]]
mutation_string = "YRTRGAWA"
result_value = "binds"

[[record]]
mutation_string = "VAGGGAGV"
result_value = "no binding"

[[record]]
mutation_string = "YRKRSVVF chain 1 S115F"
result_value = "binds"

[[record]]
mutation_string = "VATRAVGA"
result_value = "binds"

[[record]]
mutation_string = "VRRAADSD"
result_value = "binds"

[[record]]
mutation_string = "YRGGTAAA"
result_value = "binds"

[[record]]
mutation_string = "FGRRGAGV"
result_value = "binds"

[[record]]
mutation_string = "YKGRGFWA"
result_value = "binds"

[[record]]
mutation_string = "YRGEGASD"
result_value = "binds"

[[record]]
mutation_string = "VAGGDFGV"
result_value = "no binding"

[[record]]
mutation_string = "YKAGGFWF"
result_value = "binds"

[[record]]
mutation_string = "DREGDDAV"
result_value = "no binding"

[[record]]
mutation_string = "AERRGSWS"
result_value = "no binding"

[[record]]
mutation_string = "YTEGDFAV"
result_value = "no binding"

[[record]]
mutation_string = "VKTGGSWV"
result_value = "no binding"

[[record]]
mutation_string = "VKGEGDVY"
result_value = "no binding"

[[record]]
mutation_string = "YRGKGAGY"
result_value = "binds"

[[record]]
mutation_string = "VGAEDDVA"
result_value = "no binding"

[[record]]
mutation_string = "VRTRGDGA"
result_value = "binds"

[[record]]
mutation_string = "FAAGGAAS"
result_value = "binds"

[[record]]
mutation_string = "FRGRGAWS"
result_value = "binds"

[[record]]
mutation_string = "YRARGSLF"
result_value = "binds"

[[record]]
mutation_string = "YRARGAAY"
result_value = "binds"

[[record]]
mutation_string = "FRRKDDWA"
result_value = "binds"

[[record]]
mutation_string = "FRGRGALF"
result_value = "binds"

[[record]]
mutation_string = "YTRGASLD"
result_value = "no binding"

[[record]]
mutation_string = "FRGRDAVF"
result_value = "binds"

[[record]]
mutation_string = "VEGGGSGV"
result_value = "no binding"

[[record]]
mutation_string = "YRRGSSVS"
result_value = "binds"

[[record]]
mutation_string = "YRRRGFGD"
result_value = "binds"

[[record]]
mutation_string = "YKRESAGY"
result_value = "binds"

[[record]]
mutation_string = "VTGTGDWF"
result_value = "no binding"

[[record]]
mutation_string = "STEGDAGA"
result_value = "no binding"

[[record]]
mutation_string = "FRGGSAVD"
result_value = "binds"

[[record]]
mutation_string = "YRGRGVAA"
result_value = "binds"

[[record]]
mutation_string = "YMAEGSGA"
result_value = "binds"

[[record]]
mutation_string = "YRGADFGF"
result_value = "binds"

[[record]]
mutation_string = "VRTEDDVA"
result_value = "no binding"

[[record]]
mutation_string = "VAGRGVGD"
result_value = "binds"

[[record]]
mutation_string = "SRGANAWD"
result_value = "binds"

[[record]]
mutation_string = "VATGDDVD"
result_value = "no binding"

[[record]]
mutation_string = "VTAGDDAV"
result_value = "no binding"

[[record]]
mutation_string = "YGARGAAF"
result_value = "binds"

[[record]]
mutation_string = "SRRETFVF"
result_value = "binds"

[[record]]
mutation_string = "DTGTSDLY"
result_value = "no binding"

[[record]]
mutation_string = "SKGTDDWV"
result_value = "no binding"

[[record]]
mutation_string = "YRARGYVY"
result_value = "binds"

[[record]]
mutation_string = "SKTKSDGA"
result_value = "no binding"

[[record]]
mutation_string = "FERTSALF"
result_value = "binds"

[[record]]
mutation_string = "VEEEGAGV"
result_value = "no binding"

[[record]]
mutation_string = "DTGTGDAA"
result_value = "no binding"

[[record]]
mutation_string = "FKGRGAGS"
result_value = "binds"

[[record]]
mutation_string = "YRRRGSGA"
result_value = "binds"

[[record]]
mutation_string = "SAGRGYGD"
result_value = "binds"

[[record]]
mutation_string = "VEGGGDGA"
result_value = "no binding"

[[record]]
mutation_string = "YRARSSWS"
result_value = "binds"

[[record]]
mutation_string = "VTGRGDLA"
result_value = "no binding"

[[record]]
mutation_string = "YRTAGSGD"
result_value = "binds"

[[record]]
mutation_string = "DTAGDAAV"
result_value = "no binding"

[[record]]
mutation_string = "YKRGSSSY"
result_value = "binds"

[[record]]
mutation_string = "YKRGSFVD"
result_value = "binds"

[[record]]
mutation_string = "YAAGSFGY"
result_value = "binds"

[[record]]
mutation_string = "VRAGGSGD"
result_value = "binds"

[[record]]
mutation_string = "YKAGDAAA"
result_value = "binds"

[[record]]
mutation_string = "FKRRSASV"
result_value = "binds"

[[record]]
mutation_string = "FKRRDSVY"
result_value = "binds"

[[record]]
mutation_string = "VKGESAGV"
result_value = "no binding"

[[record]]
mutation_string = "YRRRGALS"
result_value = "binds"

[[record]]
mutation_string = "VRTEDSWS"
result_value = "no binding"

